# ASSAY_INFO: In vitro rat microsomal stability assay
# Format: in vitro ADME, rat (Sprague-Dawley)
# EXPERIMENTAL_CONDITIONS: rat liver microsomes (Sprague-Dawley), 0.5 μM substrate, 0.25 mg/mL microsomal protein, pH 7.4, 37° C., NADPH, 30 minutes
# Description: Test compounds were evaluated for metabolic stability in an in vitro rat microsomal stability assay using rat liver microsomes (Sprague-Dawley, from BD Biosciences) and/or an in vitro human microsomal stability assay using human liver microsomes (Xenotech). […] Incubations were carried out at 37° C. with a final incubation volume of 135 μL. […] A 1.5 μL aliquot of reduced nicotine adenine disphosphonucleotide (NADPH) (Chem-Impex Int'L Inc., Lot 12532024) was also added to the time-zero plates.
MEASURE: RAT […] (% REMAINING AFTER 30 MINUTES) (%)
Just the number please, in %, no unit attached.

COMPOUND | RAT […] (% REMAINING AFTER 30 MINUTES) / %
C[C@]1(O)C[C@](c2cc(C(F)(F)F)ccn2)([C@H](O)c2ccccn2)C1 (relative stereo) | 69

Turning now to a further record.
**Query** Give a short answer stating reported RAT […] (% REMAINING AFTER 30 MINUTES) for O[C@@H](c1ccccn1)[C@]1(c2cc(C(F)(F)F)ccn2)C[C@H](O)C1 (relative stereo) .
**Result** 71

----------
# TESTED_SYSTEM: human TRPV3 (Homo sapiens, UniProt Q8NET8)
# Construct: expressed in transfected cells
# Sequence (Q8NET8 whole entry): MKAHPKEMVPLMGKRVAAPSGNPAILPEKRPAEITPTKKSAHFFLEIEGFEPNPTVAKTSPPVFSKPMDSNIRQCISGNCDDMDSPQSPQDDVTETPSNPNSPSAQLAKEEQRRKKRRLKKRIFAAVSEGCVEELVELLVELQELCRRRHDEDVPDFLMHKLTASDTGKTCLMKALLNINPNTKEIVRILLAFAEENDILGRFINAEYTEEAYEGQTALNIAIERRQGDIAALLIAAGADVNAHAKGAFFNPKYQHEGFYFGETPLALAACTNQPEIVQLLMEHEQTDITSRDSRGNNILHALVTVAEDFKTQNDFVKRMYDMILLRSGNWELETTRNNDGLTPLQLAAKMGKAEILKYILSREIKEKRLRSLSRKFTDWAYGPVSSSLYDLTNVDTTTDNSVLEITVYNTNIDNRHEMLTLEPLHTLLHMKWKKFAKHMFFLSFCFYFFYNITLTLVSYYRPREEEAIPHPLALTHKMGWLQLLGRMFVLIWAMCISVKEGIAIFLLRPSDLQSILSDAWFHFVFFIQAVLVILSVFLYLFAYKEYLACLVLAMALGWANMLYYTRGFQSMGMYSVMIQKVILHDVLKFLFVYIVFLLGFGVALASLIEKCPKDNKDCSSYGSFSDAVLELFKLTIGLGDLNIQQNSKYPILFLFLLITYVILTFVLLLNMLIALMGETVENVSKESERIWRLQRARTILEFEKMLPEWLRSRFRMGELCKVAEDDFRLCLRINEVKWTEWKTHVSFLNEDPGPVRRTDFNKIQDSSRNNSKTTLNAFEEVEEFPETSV
# ASSAY_INFO: In vitro antagonism of recombinant human TRPV3 activation (FLIPR Tetra calcium assay)
# Format: cell-based
# EXPERIMENTAL_CONDITIONS: HEK293 cells stably expressing human TRPV3; agonist 2-APB at 80 μM; actual measured value shown parenthetically; in most cases average of at least two runs; read-out: IC50
As shown below, each of these compounds has a reported log10 of IC50 value.
Record value = log10 of IC50 given in nM.

COMPOUND | TESTED_SYSTEM | log10 of IC50
NC1CCCCC1C(O)C1(c2ccc(Cl)c(Cl)c2)CCC1 (centres unmarked) | human TRPV3 (Homo sapiens, UniProt Q8NET8) | 3.79

**Query** Write down measured log10 of IC50 (human TRPV3 (Homo sapiens, UniProt Q8NET8)) for this compound. CN1CCC(c2ccc(OC(F)(F)F)cc2)(C(O)c2ccccn2)CC1 (centres unmarked)
**Result** 3.25

**Query** Write down measured log10 of IC50 (human TRPV3 (Homo sapiens, UniProt Q8NET8)) for this compound. OC(c1ccccn1)C1(c2cccc(Cl)c2)CCCO1 (single isomer, unassigned) [Example 104]
**Result** 2.45

**Query** Write down measured log10 of IC50 (human TRPV3 (Homo sapiens, UniProt Q8NET8)) for this compound. C[C@]1(O)C[C@](c2cc(C(F)(F)F)ccn2)([C@H](O)c2ccccn2)C1 (relative stereo)
**Result** 3.00

**Query** Write down measured log10 of IC50 (human TRPV3 (Homo sapiens, UniProt Q8NET8)) for this compound. OC(c1ccccn1)C1(c2ccc(C(F)(F)F)cc2)CCCO1 (single isomer, unassigned) [Example 88]
**Result** 2.57

**Query** Write down measured log10 of IC50 (human TRPV3 (Homo sapiens, UniProt Q8NET8)) for this compound. OC(c1ccccn1)C1(C(c2ccccc2)C(F)(F)F)CCC1 (centres unmarked)
**Result** 3.56

**Query** Write down measured log10 of IC50 (human TRPV3 (Homo sapiens, UniProt Q8NET8)) for this compound. CN[C@@H]1CCC[C@H]1[C@@H](O)C1(c2ccc(Cl)c(Cl)c2)CCC1
**Result** 3.40

----------
# ASSAY_INFO: In vitro rat microsomal stability assay
# Format: in vitro ADME, rat (Sprague-Dawley)
# EXPERIMENTAL_CONDITIONS: Sprague-Dawley, rat, microsomes, 0.5 h, 0.5 μM, pH 7.4
As shown below, each of these compounds has a reported RAT MICROSOMAL STABILITY (% REMAINING AFTER 30 MINUTES) value.
Just the number please, in %, no unit attached.

COMPOUND | MEAS_VALUE
O=C1CC(c2cccc(C(F)(F)F)c2)([C@H](O)c2ccccn2)C1 (single isomer, unassigned) | 59
Cc1cccc(C2(C(O)c3ccccn3)CCC2)c1 (centres unmarked) | 0.73

**Query** Give a short answer stating reported RAT MICROSOMAL STABILITY (% REMAINING AFTER 30 MINUTES) for OC(c1ccccn1)C1(c2ccc(C(F)(F)F)nc2)CCC1 (centres unmarked) .
**Result** 76

**Query** Give a short answer stating reported RAT MICROSOMAL STABILITY (% REMAINING AFTER 30 MINUTES) for O[C@H](c1ccccn1)C1(c2cc(C(F)(F)F)ccn2)CC(F)(F)C1 .
**Result** 7.7

**Query** Give a short answer stating reported RAT MICROSOMAL STABILITY (% REMAINING AFTER 30 MINUTES) for O[C@H](c1ccccn1)[C@]1(c2cccc(C(F)(F)F)c2)C[C@@H](O)C1 .
**Result** 59

**Query** Give a short answer stating reported RAT MICROSOMAL STABILITY (% REMAINING AFTER 30 MINUTES) for OC1CC(c2cccc(OC(F)(F)F)c2)(C(O)c2ccccn2)C1 (single isomer, unassigned) [Example 272] .
**Result** 48

**Query** Give a short answer stating reported RAT MICROSOMAL STABILITY (% REMAINING AFTER 30 MINUTES) for OC(c1ccccn1)C1(c2cccc(OC(F)(F)F)c2)CC(F)(F)C1 (centres unmarked) .
**Result** 11

**Query** Give a short answer stating reported RAT MICROSOMAL STABILITY (% REMAINING AFTER 30 MINUTES) for OC(c1ccccn1)C1(c2cccc(Cl)c2)CCCO1 (single isomer, unassigned) [Example 105] .
**Result** 0.040

**Query** Give a short answer stating reported RAT MICROSOMAL STABILITY (% REMAINING AFTER 30 MINUTES) for OC(c1ccccn1)C1(c2ccccc2OC(F)(F)F)CCC1 (centres unmarked) .
**Result** 0.62

**Query** Give a short answer stating reported RAT MICROSOMAL STABILITY (% REMAINING AFTER 30 MINUTES) for O/N=C(\c1ccccn1)C1(c2ccc(Cl)c(Cl)c2)CCC1 .
**Result** 30

**Query** Give a short answer stating reported RAT MICROSOMAL STABILITY (% REMAINING AFTER 30 MINUTES) for OC(c1ccccn1)C1(c2ccccc2F)CCCO1 (centres unmarked) .
**Result** 0.012

**Query** Give a short answer stating reported RAT MICROSOMAL STABILITY (% REMAINING AFTER 30 MINUTES) for CC(c1ccccc1Cl)C1(C(O)c2ccccn2)CCC1 (centres unmarked) .
**Result** 0.18

**Query** Give a short answer stating reported RAT MICROSOMAL STABILITY (% REMAINING AFTER 30 MINUTES) for OC(c1ccccn1)C1(c2nc3ccccc3o2)CCC1 (centres unmarked) .
**Result** 8.6

**Query** Give a short answer stating reported RAT MICROSOMAL STABILITY (% REMAINING AFTER 30 MINUTES) for OC(c1ccccn1)C1(c2cccc(OC(F)(F)F)c2)CCOCC1 (centres unmarked) .
**Result** 23

**Query** Give a short answer stating reported RAT MICROSOMAL STABILITY (% REMAINING AFTER 30 MINUTES) for OC(c1ccccn1)C1(c2ccccn2)CCC1 (centres unmarked) .
**Result** 76

**Query** Give a short answer stating reported RAT MICROSOMAL STABILITY (% REMAINING AFTER 30 MINUTES) for OC(c1ccccn1)C1(c2ccccc2OC(F)(F)F)CCCO1 (single isomer, unassigned) [Example 97] .
**Result** 0.16

**Query** Give a short answer stating reported RAT MICROSOMAL STABILITY (% REMAINING AFTER 30 MINUTES) for N[C@@H]1CCC[C@H]1[C@@H](O)C1(c2ccc(OC(F)(F)F)cc2)CCC1 .
**Result** 65

**Query** Give a short answer stating reported RAT MICROSOMAL STABILITY (% REMAINING AFTER 30 MINUTES) for O[C@H](c1ccccn1)[C@]1(c2ccc(Cl)c(Cl)c2)CCO1 .
**Result** 9.5

**Query** Give a short answer stating reported RAT MICROSOMAL STABILITY (% REMAINING AFTER 30 MINUTES) for O[C@H](c1ccccn1)C1(c2ccc(OC(F)(F)F)cc2)CC(F)(F)C1 .
**Result** 67

**Query** Give a short answer stating reported RAT MICROSOMAL STABILITY (% REMAINING AFTER 30 MINUTES) for CC1(O)CC(c2cncc(C(F)(F)F)c2)(C(O)c2ccccn2)C1 (single isomer, unassigned) .
**Result** 13

**Query** Give a short answer stating reported RAT MICROSOMAL STABILITY (% REMAINING AFTER 30 MINUTES) for OC(c1ccccn1)C1(c2cccc(OC(F)(F)F)c2)CCCO1 (single isomer, unassigned) [Example 93] .
**Result** 0.33

**Query** Give a short answer stating reported RAT MICROSOMAL STABILITY (% REMAINING AFTER 30 MINUTES) for OC(c1ccccn1)C1(C2CCOc3ccccc32)CCC1 (centres unmarked) .
**Result** 10

**Query** Give a short answer stating reported RAT MICROSOMAL STABILITY (% REMAINING AFTER 30 MINUTES) for OC(c1ccccn1)C1(c2ccc(F)c(F)c2)CCCO1 (single isomer, unassigned) [Example 108] .
**Result** 4.9

**Query** Give a short answer stating reported RAT MICROSOMAL STABILITY (% REMAINING AFTER 30 MINUTES) for OC(c1ccccn1)C1(c2ccncc2)CCC1 (centres unmarked) .
**Result** 52

**Query** Give a short answer stating reported RAT MICROSOMAL STABILITY (% REMAINING AFTER 30 MINUTES) for N[C@H]1CCC[C@@H]1[C@H](O)C1(c2ccc(Cl)cc2)CCC1 .
**Result** 34

The measured values listed here are drawn from patent US8772499B2.
